- method-description: in vitro
- run-parameters: human, hela cells, % viability
Kindly state viability at 28.5 h, 10 µM for each of the entries shown.
Answers are plain numbers, in %.

Below are worked cases with known answers.
>>> print(df.to_string())
                                   compound  value
0  CCn1cc(CN2CCN(C(=O)C3C4CCCCC43)CC2)c(C)n1 (stereo not shown)   97.1
1  Cc1cc(Cl)ccc1OCC(O)CN1CCN(Cc2ccc3c(c2)OCO3)CC1 (stereo not shown)   92.3
2  COc1ccc([N+](=O)[O-])cc1N(CC(=O)Nc1cccc2ccccc12)S(C)(=O)=O   84.2

Here are 4 compounds. What values of viability at 28.5 h, 10 µM were reported for them?
1. OC(COc1ccccc1F)CSc1nc(NC2CC2)c2ccccc2n1 (stereo not shown)
2. COc1ccc(C)cc1C1(CNC(=O)C2CCC(N)C2)CCOCC1 (stereo not shown) [CBK304312C]
3. COc1cc(/C=N/NC(=O)c2ccncc2)ccc1OCc1ccc(Cl)cc1
4. Cc1cccnc1Nc1nc(-c2sc(N)nc2C)cs1

[86.7, 107, 114, 90.3]
